Items are presented alongside their recorded folding stability dG.
B1: r11_951_TrROS_Hall (parent)
chain: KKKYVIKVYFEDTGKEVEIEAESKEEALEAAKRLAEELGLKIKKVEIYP

- Variants of: B1
- Test Description: folding stability dG (cDNA display proteolysis); higher = more stable
- Experimental Setup: PBS, room temperature

[
  {
    "Variant Descriptor": "K3N",
    "folding stability dG / kcal/mol": 4.11
  },
  {
    "Variant Descriptor": "I42V",
    "folding stability dG / kcal/mol": 4.17
  },
  {
    "Variant Descriptor": "T13A",
    "folding stability dG / kcal/mol": 4.42
  },
  {
    "Variant Descriptor": "Y9G",
    "folding stability dG / kcal/mol": 3.74
  },
  {
    "Variant Descriptor": "Y4R",
    "folding stability dG / kcal/mol": 2.98
  },
  {
    "Variant Descriptor": "K41P",
    "folding stability dG / kcal/mol": 4.25
  },
  {
    "Variant Descriptor": "Y9C",
    "folding stability dG / kcal/mol": 3.95
  },
  {
    "Variant Descriptor": "L40P",
    "folding stability dG / kcal/mol": 3.02
  },
  {
    "Variant Descriptor": "S23W",
    "folding stability dG / kcal/mol": 4.13
  },
  {
    "Variant Descriptor": "V45K",
    "folding stability dG / kcal/mol": 3.16
  },
  {
    "Variant Descriptor": "A21L",
    "folding stability dG / kcal/mol": 4.24
  },
  {
    "Variant Descriptor": "D12S",
    "folding stability dG / kcal/mol": 4.38
  },
  {
    "Variant Descriptor": "K44E",
    "folding stability dG / kcal/mol": 4.25
  },
  {
    "Variant Descriptor": "K24V",
    "folding stability dG / kcal/mol": 4.6
  },
  {
    "Variant Descriptor": "K2H",
    "folding stability dG / kcal/mol": 4.51
  },
  {
    "Variant Descriptor": "L34S",
    "folding stability dG / kcal/mol": 4.01
  },
  {
    "Variant Descriptor": "V5M",
    "folding stability dG / kcal/mol": 4.31
  },
  {
    "Variant Descriptor": "P49Q",
    "folding stability dG / kcal/mol": 4.71
  },
  {
    "Variant Descriptor": "I47S",
    "folding stability dG / kcal/mol": 4.24
  },
  {
    "Variant Descriptor": "E29R",
    "folding stability dG / kcal/mol": 4.64
  },
  {
    "Variant Descriptor": "E22I",
    "folding stability dG / kcal/mol": 4.11
  },
  {
    "Variant Descriptor": "T13D",
    "folding stability dG / kcal/mol": 4.11
  }
]

Data provenance is the MegaScale stability set (Tsuboyama et al. 2023).
